Origin of the recorded values: patent US20250136581A1

TESTED TARGET: human α5β3γ2 receptors (α5-GABAA receptor) (Homo sapiens (Human), UniProt P18507+P31644)
EXPERIMENT NOTES: 3H-flunitrazepam competition binding, human α5β3γ2 GABAA receptor
CONDITIONS: HEK293 cell membranes, 1 nM 3H-flunitrazepam; read-out: α5-GABAAR Ki
QUANTITY: Ki (nM)

The cases that follow already have their Ki on record.
Cc1nnn(-c2ccc(OC(F)F)cc2)c1COc1ccc(N2CCN3CCNC(=O)[C@@H]3C2)nn1 [Example 130]	17.1
Cc1nnn(-c2ccc(C(F)F)cc2)c1COc1ccc(N2CCN3CCNC(=O)[C@H]3C2)nn1 [Example 55]	0.39
O=C1CN(c2ccc(OCc3c(C(F)(F)F)nnn3-c3ccc(C(F)F)cc3)nn2)CCN1 [Example 191]	3.27
Cc1nnn(-c2ccc(C(F)F)cc2)c1COc1ccc(N2CC(=O)N3CCN(Cc4ncccn4)CC3C2)nn1 (stereo not drawn) [Example 92]	1.1
Cc1nnn(-c2ccc(C(F)F)cc2)c1COc1ccc(N2CCN3c4ccncc4NC(=O)[C@@H]3C2)nn1 [Example 192]	17.4

[P] COc1cc(OCc2c(C)nnn2-c2ccc(C(F)F)cc2)nnc1N1CCNC(=O)C1 [Example 135]
[Q] Cc1nnn(-c2ccc(C(F)F)cc2)c1COc1ccc(N2CCCN(S(C)(=O)=O)CC2)nn1 [Example 106]
Ask | From the items above, decide which of P and Q has the lower Ki reading. Refer to your chosen item by its label in the answer.
Reply | P

[P] Cc1nnn(-c2ccc(C(F)F)cc2)c1COc1ccc(N2CCN(Cc3ncccn3)C(=O)C2)nn1 [Example 93]
[Q] Cc1nnn(-c2ccc(C(F)F)cc2)c1COc1ccc(N2CCO[C@H](C(=O)O)C2)nn1 [Example 35]
[R] Cc1nnn(-c2ccc(C(F)F)cc2)c1COc1ccc(N2CCN(CC3COC3)C(=O)C2)nn1 [Example 100]
Ask | Rank order required: Ki, descending. Answer by listing the labels in the requested order.
Reply | Q, P, R

====

TESTED TARGET: human α3β3γ2 receptors (Homo sapiens (Human), UniProt P18507+P34903)
EXPERIMENT NOTES: 3H-flunitrazepam competition binding, human α3β3γ2 GABAA receptor
CONDITIONS: HEK293 cell membranes, 1 nM 3H-flunitrazepam; read-out: Ki α3
QUANTITY: Ki (nM)

Worked examples follow.
Cc1nnn(-c2ccc(C(F)F)cc2)c1COc1ccc(N2CC(C(=O)Nc3cnn(C)c3)C2)nn1 [Example 103]	10.3
Cc1nnn(-c2ccc(C(F)F)cc2)c1COc1ccc(N2CCNC(=O)C2)cn1 [Example 21]	21.8

[a] Cc1nnn(-c2ccc(C(F)F)cc2)c1COc1ccc(N2CC(=O)NC(C)(C)C2)nn1 [Example 7]
[b] Cc1nnn(-c2ccc(C(F)F)cc2)c1COc1ccc(N2CCN3c4ccccc4NC(=O)[C@@H]3C2)nn1 [Example 122]
Ask | Determine, for a and b , which has the greater value of Ki. Record your answer as the label of the chosen record.
Reply | b
(b: 67.3 nM, a: 17 nM)

====

TESTED TARGET: human α5β3γ2 receptors (α5-GABAA receptor) (Homo sapiens (Human), UniProt P18507+P31644)
EXPERIMENT NOTES: 3H-flunitrazepam competition binding, human α5β3γ2 GABAA receptor
CONDITIONS: HEK293 cell membranes, 1 nM 3H-flunitrazepam; read-out: α5-GABAAR Ki
pKi: −log10 of the molar value.
QUANTITY: pKi

Cc1nnn(-c2ccc(C(F)F)cc2)c1COc1ccc(N2CCN[C@H](C(N)=O)C2)nn1 [Example 32]	8.53

[a] Cc1nnn(-c2ccc(C(F)F)cc2)c1COc1ccc(N2CCN(C)C(=O)C2)nn1 [Example 26]
[b] COC(C)CN1CCN(c2ccc(OCc3c(C)nnn3-c3ccc(C(F)F)cc3)nn2)CC1=O (stereo not drawn) [Example 141]
Ask | For the two items a and b , which reports the higher pKi value? I would appreciate it if you answered with the label of your choice.
Reply | a
(a: 8.88, b: 8.37)

====

TESTED TARGET: α5-GABAA receptor (α5, β3, γ2 subunits) (Homo sapiens (Human), UniProt P18507+P31644)
EXPERIMENT NOTES: Whole cell patch clamp, inverse agonist efficacy in HEK293 cells expressing α5-GABAA receptor
Format: cell-based
CONDITIONS: HEK293, drug 100 nM, GABA 0.05 μM, −60 mV; read-out: Compound inverse agonist efficacy %
QUANTITY: inhibition at 0.1 µM (%)

Cc1nnn(-c2ccc(C(F)F)cc2)c1COc1ccc(N2CCNC(=O)CC2)nn1	40.8
CC(=O)N1CCN(c2ccc(OCc3c(C)nnn3-c3ccc(C(F)F)cc3)nn2)CC1	42
Cc1nnn(-c2ccc(C(F)F)cc2)c1COc1ccc(C2=CC(=O)NCC2)nn1	52
Cc1nnn(-c2ccc(C(F)F)cc2)c1COc1ccc(N2CCN(CC#N)C(=O)C2)nn1	48
Cc1nnn(-c2ccc(C(F)F)cc2)c1COc1ccc(C2=CCCOC2)nn1	49.2
Cc1nnn(-c2ccc(Cl)cc2)c1COc1ccc(N2CCN3CCNC(=O)[C@@H]3C2)nn1	43.6

====

TESTED TARGET: human α5β3γ2 receptors (α5-GABAA receptor) (Homo sapiens (Human), UniProt P18507+P31644)
EXPERIMENT NOTES: 3H-flunitrazepam competition binding, human α5β3γ2 GABAA receptor
CONDITIONS: HEK293 cell membranes, 1 nM 3H-flunitrazepam; read-out: α5-GABAAR Ki
QUANTITY: Ki (nM)

Examples with their reported Ki follow.
Cc1nnn(-c2ccc(C(F)F)cc2)c1COc1ccc(N2CCN3CCN(C4CC4)C(=O)[C@@H]3C2)nn1	2.5
Cc1nnn(-c2ccc(C(F)F)cc2)c1COc1ccc(N2CC(C(=O)N3CC4CC3CO4)C2)nn1 (centres unmarked)	3.53
Cc1nnn(-c2ccc(C(F)F)nc2)c1COc1ccc(N2CCNC(=O)C2)nn1	23.6

[a] Cc1nnn(-c2ccc(C(F)F)cc2)c1COc1ccc(N2CC(C(=O)Nc3ccccc3)C2)nn1
[b] Cc1nnn(-c2ccc(C(F)F)cc2)c1COc1ccc(N2CCN3CCN(C)C(=O)[C@@H]3C2)nn1
Ask | # min-compare on Ki between a and b API: response body contains the label of the selected item.
Reply | a
(a: 1.1 nM, b: 15.6 nM)

====

TESTED TARGET: human α5β3γ2 receptors (α5-GABAA receptor) (Homo sapiens (Human), UniProt P18507+P31644)
EXPERIMENT NOTES: 3H-flunitrazepam competition binding, human α5β3γ2 GABAA receptor
CONDITIONS: HEK293 cell membranes, 1 nM 3H-flunitrazepam; read-out: α5-GABAAR Ki
pKi: −log10 of the molar value.
QUANTITY: pKi

Sample answers from the record:
COCCNC(=O)C1CN(c2ccc(OCc3c(C)nnn3-c3ccc(C(F)F)cc3)nn2)C1	8.19
CC(=O)N1CCN(c2ccc(OCc3c(C)nnn3-c3ccc(C(F)F)cc3)nn2)CC1	8.97
Cc1nnn(-c2ccc(C(F)F)cc2)c1COc1ccc(N2CCNC(=O)C2C)nn1 (centres unmarked)	9.24

[P] COCCN1CCN(c2ccc(OCc3c(C)nnn3-c3ccc(C(F)F)cc3)nn2)CC1=O
[Q] Cc1nnn(-c2ccc(C(F)F)cc2)c1COc1ccc(N2CCN3CC(C(C)(C)C)NC(=O)[C@@H]3C2)nn1 (single isomer, unassigned) [Example 202]
[R] Cc1cc(OCc2c(C)nnn2-c2ccc(C(F)F)cc2)nnc1N1CCNC(=O)C1
[S] Cn1nnc(-c2ccc(F)cc2)c1COc1ccc(N2CCNC(=O)C2)nn1
Ask | Let's sort these by pKi, smallest first. Go ahead? Output the labels ranked as instructed.
Reply | S, Q, P, R
(S: 7.65, Q: 8.63, P: 8.86, R: 9.20)

[A] Cc1nnn(-c2ccc(C(F)F)cc2)c1COc1ccc(N2CCNC(=O)CC2)nn1
[B] Cc1nnn(-c2ccc(CF)cc2)c1COc1ccc(N2CCN3CCNC(=O)[C@@H]3C2)nn1
[C] COCc1ccc(-n2nnc(C)c2COc2ccc(N3CCN4CCNC(=O)[C@@H]4C3)nn2)cc1
[D] Cc1nnn(-c2ccc(C(F)F)cc2)c1COc1ccc(N2CCN[C@@H](C(=O)O)C2)nn1
Ask | Hey, quick one: sort these by pKi, largest value first please. Present the labels in the sequence the task asks for.
Reply | A, B, D, C
(A: 8.89, B: 8.59, D: 8.37, C: 7.86)

====

TESTED TARGET: human α5β3γ2 receptors (α5-GABAA receptor) (Homo sapiens (Human), UniProt P18507+P31644)
EXPERIMENT NOTES: 3H-flunitrazepam competition binding, human α5β3γ2 GABAA receptor
CONDITIONS: HEK293 cell membranes, 1 nM 3H-flunitrazepam; read-out: α5-GABAAR Ki
Procedure: The affinity of the compound to each subtype of GABAA receptor was determined by competing for the binding of ^3H-flunitrazepam to HEK293 cells stably expressing human α1β3γ2, α2β3γ2, α3β3γ2, and α5β3γ2 receptors. The cells were suspended in 50 mM Tris-HCl buffer (pH=7.4), homogenized 10 times on ice with a homogenizer for 20 seconds, and centrifuged at 1000 g for 10 minutes at 4° C. […] Protein was measured (BCA method, Pierce), and 1 mL aliquots were prepared and stored at −80° C. […]
pKi: −log10 of the molar value.
QUANTITY: pKi

Some entries whose results are on file:
Cc1nnn(-c2ccc(C(F)F)cc2)c1COc1ccc(N2CC(C(=O)Nc3cnn(C(C)C)c3)C2)nn1 [Example 150]	8.63
CNC(=O)[C@@H]1CN(c2ccc(OCc3c(C)nnn3-c3ccc(C(F)F)cc3)nn2)CCN1 [Example 30]	8.57
Cc1nnn(-c2ccc(C(F)F)cc2)c1COc1ccc(N2CCNC(=O)C2)cn1 [Example 21]	8.91
CCNC(=O)C1CN(c2ccc(OCc3c(C)nnn3-c3ccc(C(F)F)cc3)nn2)C1 [Example 43]	8.35

[A] Cc1nnn(-c2ccc(C(F)F)cc2)c1COc1ccc(N2CCN(Cc3ccccn3)C(=O)C2)nn1 [Example 60]
[B] Cc1nnn(-c2ccc(C(F)F)cc2)c1COc1ccc(N2CCCNC(=O)C2)nn1 [Example 4]
[C] Cc1nnn(-c2ccc(C(F)F)cc2)c1COc1ccc(N2CCNC2=O)nn1 [Example 19]
Ask | In this exercise, place the 3 molecules in ascending sequence of their recorded pKi. Please respond with the labels ordered as the question requires.
Reply | B, A, C
(B: 8.14, A: 8.88, C: 9.28)
